# Assay System: 5'-AMP-activated protein kinase catalytic subunit alpha-1 (Homo sapiens);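 further: enzyme tested as the AMPK alpha1 beta1 gamma1 complex, values reported as mean percent inhibition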
# Details: at 0.1 µM
# Description: GSK_PKIS: AMPKA1 (A1B1G1) mean inhibition at 0.1 uM [Nanosyn]
Parameter: inhibition. Scope: all listed entries.
Give the quantity in %, number only.

# example entries with known answers
{"Compound": "Cc1ccc(C(=O)NC2CCC2)cc1-c1ccc(C(=O)NCC2CC2)cc1", "inhibition / %": 1.41}
{"Compound": "COc1ccc2cc(-c3c(-c4ccncc4)nc(-c4ccc(S(C)(=O)=O)cc4C)n3C)ccc2c1", "inhibition / %": 3.65}

(Q) Look up inhibition: "CCc1ccc(Oc2nccc(-c3c(-c4ccc(F)cc4)ncn3C3CCNCC3)n2)cc1"
(A) 5.5

(Q) Look up inhibition: "COc1cc2ncn(-c3cc(OCc4cccs4)c(C(N)=O)s3)c2cc1OC"
(A) 3.16

(Q) Look up inhibition: "O=C(Nc1ccc(Oc2ccc3[nH]c(NC(=O)c4ccccc4)nc3c2)cc1)Nc1cc(C(F)(F)F)ccc1F"
(A) 2.87

(Q) Look up inhibition: "CN(c1ccc(NC(=O)Nc2c(Cl)cccc2Cl)cc1)c1ccnc(Nc2cccc(CS(C)(=O)=O)c2)n1"
(A) 2.22

(Q) Look up inhibition: "CS(=O)(=O)CCNCc1cc(-c2cc3c(Nc4ccc(OCc5cccc(F)c5)c(Cl)c4)ncnc3s2)cs1"
(A) 2.39

(Q) Look up inhibition: "c1ccc(Oc2ccc(Nc3ncc(-c4ccccc4)o3)cc2)cc1"
(A) 0.33

Values were extracted from ChEMBL document CHEMBL1961873.
